Subject of test: BAZ2B (Homo sapiens, UniProt Q9UIF8)
Sequence (Q9UIF8 2060-2164 limits assumed): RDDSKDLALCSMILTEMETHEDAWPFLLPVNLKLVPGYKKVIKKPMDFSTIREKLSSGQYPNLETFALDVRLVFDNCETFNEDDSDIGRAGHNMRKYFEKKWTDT
Experiment notes: BROMOscan ligand-binding assay
pKd: −log10 of the molar value.
Quantity: pKd

Let me check: `CCCS(=O)(=O)c1nc(NC2CC2)cc(-c2ccc3c(ccn3C3CC(C)(C)NC(C)(C)C3)c2)n1` , system BAZ2B (Homo sapiens, UniProt Q9UIF8), measured pKd is < 4.52

###

Subject of test: UniProtKB O14929
Sequence (O14929 1-419): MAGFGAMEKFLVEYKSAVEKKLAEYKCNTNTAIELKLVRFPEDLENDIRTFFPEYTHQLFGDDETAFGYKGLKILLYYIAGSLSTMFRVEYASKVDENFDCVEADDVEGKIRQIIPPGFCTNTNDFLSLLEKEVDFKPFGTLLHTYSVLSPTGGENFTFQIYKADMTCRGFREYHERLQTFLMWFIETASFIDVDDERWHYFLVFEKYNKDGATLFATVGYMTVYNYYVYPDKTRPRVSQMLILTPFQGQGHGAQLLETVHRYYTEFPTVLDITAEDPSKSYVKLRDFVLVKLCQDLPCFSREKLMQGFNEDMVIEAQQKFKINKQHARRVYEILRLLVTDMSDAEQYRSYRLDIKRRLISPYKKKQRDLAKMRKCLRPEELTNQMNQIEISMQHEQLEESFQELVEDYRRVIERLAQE
Experiment notes: Histone acetyltransferase (HAT) activity assay;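 further: HAT selectivity screen of BRD probe compounds, enzyme activity in % measured with compound at 1 µM and 10 µM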
Type: biochemical
Conditions: 10µM; read-out: HATs Activity (%)
Quantity: activity at 10 µM (%)
Your answer should be a plain number; it is taken to be in %.

INSERT INTO measurements (chemical_string, quantity, recorded_value) VALUES
  ('Cc1nnc2c3ccccc3c(N[C@@H](C)[C@H](c3ccccc3)N(C)C)nn12', 'activity at 10 µM', 95);

Sample `CC(=O)c1cc(-c2cc(C(=O)NC3CC3)ccc2C)c2ncccn12` ; activity at 10 µM observed: 97

Sample `Cc1c(NC(=O)c2cc(C(N)=O)nc3cc(F)ccc23)c(C(F)(F)F)nn1Cc1ccc(C#N)cc1` ; activity at 10 µM observed: 89

Sample `Cc1c(NC(=O)c2cc(C(N)=O)nc3cc(F)ccc23)c(C(F)(F)F)nn1Cc1ccc(C(C)(C)C)cc1` ; activity at 10 µM observed: 97

Sample `CN(C)CCCOc1ccc(-c2cc(NCCCn3cccn3)nc(S(C)(=O)=O)n2)cc1` ; activity at 10 µM observed: 100
